Biological target: dopamine receptor D4 (Homo sapiens)
Sequence (P21917 1-419): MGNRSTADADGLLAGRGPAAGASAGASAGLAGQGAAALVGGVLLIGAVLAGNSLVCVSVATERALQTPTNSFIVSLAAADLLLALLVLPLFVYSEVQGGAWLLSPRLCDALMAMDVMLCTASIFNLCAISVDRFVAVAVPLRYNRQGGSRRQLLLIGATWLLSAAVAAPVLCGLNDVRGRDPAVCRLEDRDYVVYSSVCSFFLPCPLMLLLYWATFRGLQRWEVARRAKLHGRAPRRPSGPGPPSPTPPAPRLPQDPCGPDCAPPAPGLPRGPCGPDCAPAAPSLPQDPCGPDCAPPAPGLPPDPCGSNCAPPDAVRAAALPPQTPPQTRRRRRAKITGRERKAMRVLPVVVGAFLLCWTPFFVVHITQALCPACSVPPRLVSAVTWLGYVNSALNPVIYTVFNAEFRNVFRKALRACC
pKi: −log10 of the molar value.

[
  {
    "Cpd smiles": "O=C(CN1CCN(c2ccccc2)CC1)Nc1cc(C(F)(F)F)ccc1Cl",
    "pKi": 5.72
  }
]
